# Tested on: PPARg DBDmut IVT, anti-PPARg (DBD mutation: PPARg1 K132A/R137A, NR concentration 270 nM)
# assay_summary: PBM binding z-score (relative to random genomic background probes); higher = stronger binding; sequences stand for … in GC…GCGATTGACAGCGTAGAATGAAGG
Grouping by measured PBM binding z-score is done with the following cut points: category 1: < -0.5; category 2: ≥ -0.5 and < 0.7; category 3: ≥ 0.7

[[record]]
primary_sequence = "TCTTGTAAATCAATAGAGGTTAAGAAAGTGCGCT"
category_label = "category 3"

[[record]]
primary_sequence = "AGAATGAGGTTATTAAGATCAGGGGATTGCGGTC"
category_label = "category 2"

[[record]]
primary_sequence = "CGTCAAAGTTGAAGGTAACGTAACAGAAAGCAGC"
category_label = "category 2"

[[record]]
primary_sequence = "TCTCGGAGGACACGAAGGTCAGAGGTTTCCAGAG"
category_label = "category 1"

[[record]]
primary_sequence = "TAGCCTAGGTCAGATCGGGCCAGAATACGCTATA"
category_label = "category 1"

[[record]]
primary_sequence = "TAGCCTAGGTCATGGGCCAGTAGACCACGCGAAC"
category_label = "category 2"

[[record]]
primary_sequence = "CCAGACAGGTGAAAGTTAACTCAGTCTGGTACGC"
category_label = "category 2"

[[record]]
primary_sequence = "TCATATAGGTAAATGTGAAAGTCGAACGATATGA"
category_label = "category 3"

[[record]]
primary_sequence = "GCTCGGAGGACAAAGTCAGAGCTTTGTCCGTAGA"
category_label = "category 1"

[[record]]
primary_sequence = "TCTTCTAGATCAGCAGGTTAAGAAAGCTGGCCAA"
category_label = "category 2"

[[record]]
primary_sequence = "CGTCCAAGCTCAAAGGTCAGTGAAGAGATGACGG"
category_label = "category 1"

[[record]]
primary_sequence = "CCGACTGGGACATAAGGTTACCATAAGCCAGCCC"
category_label = "category 1"

[[record]]
primary_sequence = "CCTCGGAGGACAGAAGGTCAGAGCCGTCCGCTTT"
category_label = "category 1"

[[record]]
primary_sequence = "CGTCCAAGGTCAAGGACAGTGAAAGAGACTCGAA"
category_label = "category 2"

[[record]]
primary_sequence = "ATCTCTAGGTAAAGATAGTTCTGTGAATGCAAAT"
category_label = "category 3"

[[record]]
primary_sequence = "AATACAGGGTCACTAGGCCAGAATAGGTACGAAT"
category_label = "category 3"

[[record]]
primary_sequence = "AATACAGGGTCATTGTAGGCCAGAGTACGCACAG"
category_label = "category 3"

[[record]]
primary_sequence = "CAAACTAGGTCACCGGAAGTTCAAAGTCCGCATG"
category_label = "category 3"

[[record]]
primary_sequence = "CCTATTAGTTAACCATAAGGGCAACCGAAGCTCG"
category_label = "category 3"

[[record]]
primary_sequence = "CCGACTGGGGCATAAAGTTACCATAAGCCAGCCC"
category_label = "category 1"

